Provenance of the data: PubChem BioAssay (Tox21)

- PROCEDURE_SUMMARY: qHTS assay to identify small molecule HDAC inhibitors - cell viability counter screen (AID 1259365); note: nearly all actives have a fitted effect of over 50% in size
- EXPERIMENTAL_CONDITIONS: HCT-116 viability, CellTiter-Glo ATP luminescence, 2 h; series mostly up to 92.4 µM
Active and inactive are the calls of the source. Calls come from the whole dose curve; as a rule, active = well fitted cell-killing curve with a large enough effect in the repeat runs; inconclusive = weak or mixed curves, or effect the other way; inactive = flat fitted curve, though single readings scatter.
Answer with one of the outcomes active, inactive

In [3]: df
Out[3]:
                                   compound  category_label
0  Cc1c(C)c2c(c(C)c1OC(=O)CCC(=O)O)CC[C@@](C)(CCC[C@H](C)CCC[C@H](C)CCCC(C)C)O2        inactive
1  Cc1cc(O)c(C(C)(C)C)cc1Sc1cc(C(C)(C)C)c(O)cc1C          active
2  COc1cc(/C=C/C(=O)O[C@H]2CC[C@]34C[C@]35CC[C@]3(C)[C@@H]([C@H](C)CCC=C(C)C)CC[C@@]3(C)[C@@H]5CC[C@H]4C2(C)C)ccc1O        inactive

Per the assay record, what outcome was assigned to Nc1ccc2cc(S(=O)(=O)O)cc(O)c2c1N=Nc1ccccc1C(F)(F)F ? inactive

Cc1cccc(CN2CCN(C(c3ccccc3)c3ccc(Cl)cc3)CC2)c1 (stereo not given) , same question. inactive

###

- PROCEDURE_SUMMARY: A CellTox Green Cytotoxicity Assay to monitor cytotoxicity in HEK293 cells - 24 hour (AID 1224875); note: % is set by controls: 0 for no effect and ±100 for the full control effect; nearly all actives have a fitted effect of over 45% in size
- EXPERIMENTAL_CONDITIONS: CellTox Green fluorescence; series mostly up to 76.8 µM
Results filed as inconclusive are left out. Activity calls are given as the source filed them. Calls follow the shape of the dose curve; as a rule, active = well fitted activation curve with a large enough effect in the repeat runs; inconclusive = weak or mixed curves; inactive = flat fitted curve, though single readings scatter.
Answer with one of the outcomes 1 for active, -1 for inactive

Example cases with answers are listed next.
COMPOUND	CATEGORY_LABEL
Clc1ccc2n[nH]nc2c1	-1
COC(=O)C1=C(C)NC(C)=C(C(=O)OCC(C)C)C1c1ccccc1[N+](=O)[O-] (stereo not drawn)	-1
CCCCCCOC(=O)c1ccc(O)cc1	-1
Nc1ccc(N)c2ccccc12	-1

Per the assay record, what outcome was assigned to CC(C)(C)c1ccc(C(=O)O)cc1 ? -1

O=c1[nH]sc2cc(Cl)ccc12 , same question. -1

CCC(Cl)C(Cl)C(Cl)CC(Cl)C(Cl)C(C)Cl (stereo not drawn) , same question. -1

###

- PROCEDURE_SUMMARY: qHTS assay to identify small molecule agonists of the progesterone receptor (PR) signaling pathway - cell viability counter screen (AID 1346799); note: nearly all actives have a fitted effect of over 45% in size
- EXPERIMENTAL_CONDITIONS: PR-UAS-bla HEK293T viability, CellTiter-Glo luminescence, 16 h; series mostly up to 92.4 µM
Records with an inconclusive call do not appear. Active and inactive are the calls of the source. Calls come from the whole dose curve.
Answer with one of the outcomes T = active, F = inactive

Example cases with answers are listed next.
In [3]: df
Out[3]:
                                   compound  category_label
0  CC(=O)SC[C@@H](Cc1ccccc1)C(=O)NCC(=O)OCc1ccccc1               F
1                               On1ccccc1=S               T
2  O=C1Cc2cc(CCN3CCN(c4nsc5ccccc45)CC3)c(Cl)cc2N1               F
3                  Clc1ccc2nsnc2c1NC1=NCCN1               F
4                            O=C1C=CC(=O)N1               T

Per the assay record, what outcome was assigned to O=C1C=CC(=O)N1c1ccc(Cc2ccc(N3C(=O)C=CC3=O)cc2)cc1 ? F

CCCCCCCCCCCC(=O)NCCCN(C)C , same question. T

###

- PROCEDURE_SUMMARY: qHTS assay to identify small molecule antagonists of the estrogen receptor alpha (ER-alpha) signaling pathway using the BG1 cell line in the presence of 0.1 nM 17-beta-estradiol - cell viability counter screen (AID 1259241); note: nearly all actives have a fitted effect of over 40% in size
- EXPERIMENTAL_CONDITIONS: VM7Luc4E2 (BG1) viability, CellTiter-Fluor protease, 22 h, 0.1 nM estradiol agonist added; series mostly up to 92.4 µM
Results filed as inconclusive are left out. Calls of active or inactive are those of the source. The call rests on the fitted dose curve; in most records, active means well fitted cell-killing curve with a large enough effect in the repeat runs; inconclusive means weak or mixed curves, or effect the other way; inactive means flat fitted curve, though single readings scatter.
Answer with one of the outcomes y for active, n for inactive

Example cases with answers are listed next.
>>> print(df.to_string())
                                   compound  category_label
0  CSc1ccc2c(c1)C(N1CCN(C)CC1)Cc1ccccc1S2 (configuration not stated)               n
1                   Oc1ccc2c(c1)-c1ccccc1C2               n
2                        [Cl][Au]([Cl])[Cl]               y

Per the assay record, what outcome was assigned to CCc1cc(Cc2cc(CC)c(N)c(CC)c2)cc(CC)c1N ? n

O=C1Cc2cc(CCN3CCN(c4nsc5ccccc45)CC3)c(Cl)cc2N1 , same question. n

CCCCCCC[N+](CC)(CC)CCCCc1ccc(Cl)cc1 , same question. y

Cc1cccc(CN2CCN(C(c3ccccc3)c3ccc(Cl)cc3)CC2)c1 (configuration not stated) , same question. n

CCCC(C)c1ccccc1O (configuration not stated) , same question. n

C[n+]1ccn(Cc2ccccc2)c1 , same question. n

###

- PROCEDURE_SUMMARY: qHTS assay to test for compound auto fluorescence at 590 nm (red) in HEK293 cells (AID 720679); note: % is set by controls: 0 for no effect and ±100 for the full control effect
- EXPERIMENTAL_CONDITIONS: red autofluorescence 540/590 nm; series mostly up to 91.3 µM
Active and inactive are the calls of the source. The call rests on the fitted dose curve; in most records, active means well fitted curve in the direction sought with a large enough effect in the repeat runs; inconclusive means weak or mixed curves; inactive means flat fitted curve, though single readings scatter.
PROPERTY_NAME: fluorescence, % of fluorescent control

In [3]: df
Out[3]:
                            chemical_smiles  obs_value
0                 CC(C)CCCCCCCCCCCCCCC(=O)O   inactive
1  Cc1ccc2oc(CN(Cc3ccccc3)C(=O)Nc3c(F)cc(F)cc3F)c(-c3ccc(Cl)cc3)c2c1   inactive
2              O=C(N/N=C/c1ccccc1O)c1ccncc1   inactive
3  Cc1ccc(-n2nc(C(C)(C)C)cc2NC(=O)Nc2ccc(OCCN3CCOCC3)c3ccccc23)cc1   inactive
4                 CCCCCCCCCCCC(=O)NCCCN(C)C   inactive
5                    Cc1cccc(S(=O)(=O)O)c1C   inactive

Given the molecule CCN(C(=O)N(CC)c1ccccc1)c1ccccc1 , what is its reported fluorescence, % of fluorescent control? inactive

Nc1ccc2c3c(cccc13)-c1ccccc1-2 , same question. inactive

CCCCCCCCCOC(=O)c1ccc(O)cc1 , same question. inactive

O=c1cc(-c2ccc(O)cc2)oc2cc(O)cc(O)c12 , same question. inactive

CN(C)C(=O)C1(N2CCCCC2)CCN(CC[C@@]2(c3ccc(Cl)c(Cl)c3)CN(C(=O)c3ccccc3)CCO2)CC1 , same question. inactive

###

- PROCEDURE_SUMMARY: qHTS assay to identify small molecule antagonists of the estrogen related receptor (ERR) signaling pathway from Tox21 library (AID 1224848); note: nearly all actives have a fitted effect of over 50% in size
- EXPERIMENTAL_CONDITIONS: ERR reporter cell line, luciferase antagonist mode, 18 h; series mostly up to 92.4 µM
Records with an inconclusive call do not appear. Calls of active or inactive are those of the source. Calls come from the whole dose curve; as a rule, active = well fitted inhibition curve with a large enough effect in the repeat runs; inconclusive = weak or mixed curves; inactive = no such curve, though single readings can be large or run the other way.
Answer with one of the outcomes active, inactive

Example cases with answers are listed next.
In [3]: df
Out[3]:
                            chemical_smiles  category_label
0            CCCCCOc1ccccc1/C(=C\SC)n1ccnc1          active
1  Nc1ccc2cc(S(=O)(=O)O)cc(O)c2c1N=Nc1ccccc1C(F)(F)F        inactive
2                  O=C1CCCCCN1SSN1CCCCCC1=O          active
3  Cc1cc(O)c(C(C)(C)C)cc1Sc1cc(C(C)(C)C)c(O)cc1C          active
4     CCCCCCCCCCCCCCCCCC[N+](C)(C)Cc1ccccc1          active
5  OCCN(CCO)c1nc(N2CCCCC2)c2nc(N(CCO)CCO)nc(N3CCCCC3)c2n1          active

Per the assay record, what outcome was assigned to CCOC(=O)c1nc(C(Cl)(Cl)Cl)n(-c2ccc(Cl)cc2Cl)n1 ? active

CC(C)c1ccc2c(c1)CC[C@H]1[C@](C)(CN)CCC[C@]21C , same question. active

Cn1cc(C(=O)[C@@H]2CCc3nc[nH]c3C2)c2ccccc21 , same question. inactive

Cc1cc(O)c2ccccc2c1O , same question. active

O=C(Nc1cccc(Cl)c1)OCC#CCCl , same question. active

CN(C)[C@@H]1C(=O)C(C(N)=O)=C(O)[C@@]2(O)C(=O)C3=C(O)c4c(O)ccc(Cl)c4[C@@H](O)[C@H]3C[C@@H]12 , same question. inactive
